Where these numbers come from: paper PMC4212957

The entries below are paired with their reported Relative binding affinity of peptide to HLA-DR molecules DRB1*0301.
# target_under_test: HLA-DRB1*03:01 (Homo sapiens, UniProt P01903+P01911, A100K/A102G/A103R/A169T/F55Y/I96L/K41T/L162R/M171V/P40S/Q125H/Q178H/Q39Y/R42S/S66N/T106N/T262R/W38E/Y61H)
# Construct: HLA-DR heterodimers were purified from homozygous Epstein–Barr virus B-lymphoblastoid cell lines; host or cells: homozygous EBV B-lymphoblastoid cell line
# protocol_details: Peptide/HLA-DR binding, competitive ELISA
# run_parameters: ratio IC50 of peptide / IC50 of reference peptide MT2-16, lower = higher affinity, ratio 20 or less high, 20–100 moderate, three independent experiments
assay_endpoint: Relative binding affinity of peptide to HLA-DR molecules DRB1*0301

INSERT INTO measurements (substance, recorded_value) VALUES
  ('7: SseB overlapping library peptide, residues 61–80 (FIEVQKNAERARNTQEKSNE) [Peptide 7]', 89),
  ('16: SseB overlapping library peptide, residues 151–170 (NTDLMSQGQITIQKMSQELN) [Peptide 16]', '> 119'),
  ('11: SseB overlapping library peptide, residues 101–120 (EDVIKYMRDNGILIDGMTID) [Peptide 11]', '> 119'),
  ('13: SseB overlapping library peptide, residues 121–140 (DYMAKYGDHGKLDKGGLQAI) [Peptide 13]', '> 119');
